Catalogue of growth values
- Test system: SK-MEL-28 melanoma
- Assay Protocol: NCI-60 one-dose screen, 48 h (100 = growth as untreated, 0 = no growth, -100 = all killed)
- Particulars: 10 µM unless noted
This is part of a sample that, as a whole, favours compounds with a hit. Of some 83,000 tested, about 20% had one in any assay.
Note: unit % is implicit; provide only the numeric part.

Example results:
CN(CC(=O)N(Cc1ccc(C2CCCCC2)cc1)c1ccc(C(=O)NO)cc1)S(=O)(=O)c1c(F)c(F)c(F)c(F)c1F    86.8
CCOC(=S)SCc1ccc(Cl)cc1    114
CCN(CC)CC(O)c1cc(-c2ccc(Cl)cc2)nc2c(C)c(Cl)ccc12 (stereo not given)    -85.5
Cc1ccc(S(=O)(=O)N(CCc2ccc(Cl)cc2)S(=O)(=O)c2ccc(C)cc2)cc1    93.9
CC1(C)CC(=O)C(c2c(-c3ccccc3)[nH]c3[nH]c(=S)[nH]c(=O)c23)=C(O)C1    110
CCC(=O)OCc1cccc(OC)c1    107

Missing value: growth, SK-MEL-28 melanoma, entry `O=c1c2cccc3c(Nc4ccccn4)ccc(c32)c2nc3ccccc3n12` . Fill in? 101

Look up growth with SK-MEL-28 melanoma for this compound: CSc1ncnc2c1ncn2C1CCCO1 (stereo not given) 141

Please provide the recorded growth for COC1/C=C\OC2(C)Oc3c(C)c(O)c4c(O)c(c(CN(C)CCO)c(O)c4c3C2=O)NC(=O)/C(C)=C\C=C/C(C)C(O)C(C)C(O)C(C)C(OC(C)=O)C1C (stereo not given) , tested on SK-MEL-28 melanoma. 124

Under SK-MEL-28 melanoma: growth value of `CCc1ccccc1NC(=O)c1sc2nc3c(cc2c1N)C(=O)CCC3` ? 43.7

---

- System: T-47D breast
- Assay Protocol: NCI-60 one-dose screen, 48 h (100 = growth as untreated, 0 = no growth, -100 = all killed)
- Particulars: 10 µM unless noted
About 83,000 compounds went through this panel and 20% of them were active in at least one assay; those are over-represented in the sample as a whole.
The following compounds are shown together with reported growth values.
Report the value in % with no unit label.

Would you please look over these solved cases?
COc1cc2c(=O)n(CC3CCCCC3)c3c4cc[nH]c4ncc3c2cc1OC    44.9
Oc1ccc(Nc2nccc(-c3ccc4ccccc4c3)n2)cc1    48.7
O=c1c2cccc3c(Nc4ccccn4)ccc(c32)c2nc3ccccc3n12    46.6
CCOC(=O)c1ccc2c(c1)nc(/C=C/c1ccc(Cl)cc1)n2-c1cc(C(C)(C)C)[nH]n1    56.2

Query for T-47D breast: what growth does the record show for `O=S(=O)(NCCCNc1cc(-c2cn(-c3ccccc3)nc2-c2cccc(O)c2)ccn1)c1ccccc1` ? 18.4

---

- Test system: RPMI-8226 leukemia
- Assay Protocol: NCI-60 one-dose screen, 48 h (100 = growth as untreated, 0 = no growth, -100 = all killed)
- Particulars: 10 µM unless noted
- Experimental: Growth inhibition of the RPMI-8226 human tumor cell line is measured as a screen for anti-cancer activity. Cells are grown in 96 well plates and exposed to the test compound for 48 hours. Compounds are tested at a single concentration, which is 10^-5 M for most compounds. The reported endpoint is percent growth (GI% or GIPRCNT), where numbers from 0 - 100% represent growth inhibition, and numbers from -100% - 0 represent cell death. For example, a value of 40 represents 60% growth inhibition. […]
The panel holds about 83,000 compounds, 20% with a hit somewhere; the sample as a whole holds those more often.
Quantity Kind: growth (%)
Respond numerically; units are % and should not be typed.

Solved entries:
O=C(Nc1nc(-c2ccccc2)cc(-c2ccc(Cl)cc2)n1)c1ccncc1    92.3
c1ccc(CSc2ncnc3nc[nH]c23)nc1    124
CCN(CC)CC#CCOC(=O)[C@]1(C)CCC[C@@]2(C)[C@H]1CC(C=O)=C1C=C(C(C)C)CC[C@@H]12    27.8
CCOC(=O)c1cnc2ccc(Br)cc2c1Nc1cccc(S(=O)(=O)NC)c1    110
Cc1ccc(N)cc1F    121
C/C(Cc1ccc(Cl)cc1)=C(\c1ccc(OCCN2CCCCCC2)cc1)c1ccc(OC(=O)Cc2ccccc2)cc1    33
COc1cc(/C=C2\CN(C(=O)CCN3CCC(=NO)CC3)C/C(=C\c3cc(OC)c(OC)c(OC)c3)C2=O)cc(OC)c1OC    -40.1
CS(CCCCN=C=S)=NC(=O)c1c(F)c(F)c(F)c(F)c1F (stereo not given)    10.3
O=C(/C=C/c1cc2ccccc2[nH]c1=O)/C=C/c1cc2ccccc2[nH]c1=O    -16.8

Field request: growth | item: `CC(=O)Nc1ccc2c(c1)c(NC(C)=O)nn2C(=O)Nc1ccc(Cc2ccccc2)cc1` 88.8

These measurements were taken from PubChem BioAssay (NCI).
